These measurements were taken from patent US11718622B2.

Recorded IC50 values (Adenosine A2B (ADORA2B) receptor (Homo sapiens (Human))) are given below.

Consider the worked cases shown below.
Cc1nc2c(-c3ccc(C)o3)nc(NC(=O)C3CC3)cn2n1 [Compound 169] | < 10 nM
Cc1ccc(-c2nc(NC(=O)C3CC3)cc3nc(C(F)(F)F)nn23)o1 [Compound 20] | < 10 nM

Value wanted: IC50 (Adenosine A2B (ADORA2B) receptor (Homo sapiens (Human))) of entry CC(=O)Nc1cc2nc(C3CNC3)nn2c(-c2ccco2)n1 [Compound 122]
> 1000 nM

Value wanted: IC50 (Adenosine A2B (ADORA2B) receptor (Homo sapiens (Human))) of entry Cc1nc2c(Br)c(N)nc(-c3ccc(C)o3)n2n1 [Compound 16]
< 10 nM

Value wanted: IC50 (Adenosine A2B (ADORA2B) receptor (Homo sapiens (Human))) of entry Cc1nc2c(C#N)c(N)nc(-c3ccc(C)o3)n2n1 [Compound 26]
< 10 nM

----------
Recorded pIC50 values (UniProt P29275) are given below.
pIC50: −log10 of the molar value.

Consider the worked cases shown below.
Cc1ccc(-c2nc3[nH]ncc3c3nc(C(F)(F)F)nn23)o1 | 7.00 to 8.00
Nc1nc(-c2ccccc2)n2nc(C(F)F)nc2c1Cl | 7.00 to 8.00
CC(=O)Nc1cc2nc(C(F)F)nn2c(-c2ccc(C)o2)n1 | > 8.00
Cc1nc2c(C)c(NC(=O)C3CC3)nc(-c3ccc(C)o3)n2n1 | 6.00 to 7.00
CC(=O)Nc1cc2nc(C(F)(F)F)nn2c(-c2ccco2)n1 | 7.00 to 8.00

Value wanted: pIC50 (UniProt P29275) of entry `Cc1nc2cc(NC(=O)C3CC3)nc(-c3ccc(F)o3)n2n1`
> 8.00

Value wanted: pIC50 (UniProt P29275) of entry `CCCNC(=O)Nc1cc2nc(C)nn2c(-c2ccco2)n1`
7.00 to 8.00

Value wanted: pIC50 (UniProt P29275) of entry `Nc1nc(-c2ccccc2)n2nc(C(F)(F)F)nc2c1Cl`
7.00 to 8.00

Value wanted: pIC50 (UniProt P29275) of entry `Cc1nc2c(-c3ccc(F)cc3)nc(N)c(Br)n2n1`
7.00 to 8.00

----------
# reported pIC50; entries follow
Target: Adenosine A2a (ADORA2A) receptor (Homo sapiens (Human))
Sequence (P29274 whole entry): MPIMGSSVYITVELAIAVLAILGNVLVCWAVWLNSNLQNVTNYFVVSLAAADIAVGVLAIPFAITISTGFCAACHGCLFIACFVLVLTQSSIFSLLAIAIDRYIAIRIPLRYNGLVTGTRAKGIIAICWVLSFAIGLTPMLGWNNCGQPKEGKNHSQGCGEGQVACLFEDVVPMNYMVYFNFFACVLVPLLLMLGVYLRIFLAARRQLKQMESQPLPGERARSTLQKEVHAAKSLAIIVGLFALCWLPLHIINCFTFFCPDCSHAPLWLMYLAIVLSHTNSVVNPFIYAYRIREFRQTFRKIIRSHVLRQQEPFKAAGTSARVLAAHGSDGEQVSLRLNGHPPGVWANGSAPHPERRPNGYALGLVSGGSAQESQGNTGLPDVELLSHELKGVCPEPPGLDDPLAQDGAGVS
Assay: ADORA2A Receptor Binding Assay
Conditions: radioligand binding, membrane stock
pIC50: −log10 of the molar value.

Consider the worked cases shown below.
Cc1ccc(-c2nc(NC(=O)C3CC3)cc3nc(C4CC4)nn23)o1 | > 8.00
Cc1nc2cc(N)nc(-c3ccc(S(C)(=O)=O)cc3)n2n1 | < 6.00
CC(=O)Nc1cc2nc(C3CNC3)nn2c(-c2ccco2)n1 | 6.00 to 7.00
Cc1ccc(-c2nc(NC(=O)C3CC3)cn3nc(N)nc23)o1 | > 8.00

--- query ---
Need pIC50, item `Cc1nc2cc(NC(=O)C3CC3)nc(-c3cccc(C#N)c3)n2n1`
7.00 to 8.00

----------
Recorded IC50 values (Adenosine A2B (ADORA2B) receptor (Homo sapiens (Human), UniProt P29275)) are given below.

Consider the worked cases shown below.
Cc1nc2c3cccnc3nc(-c3ccc(C)o3)n2n1 | > 1000 nM
Cc1nc2cc(NC(=O)N3CC[C@H](O)C3)nc(-c3ccco3)n2n1 | > 1000 nM

Need IC50, item `CC(=O)Nc1cc2nc(C3CC3)nn2c(-c2ccc(C)o2)n1`
10 to 100 nM

Need IC50, item `CC(=O)c1cccc(-c2nc(NC(=O)C3CC3)cc3nc(C)nn23)c1`
100 to 1000 nM

Need IC50, item `Cc1nc2c(F)c(NC(=O)C3CC3)nc(-c3ccc(C)o3)n2n1`
10 to 100 nM

Need IC50, item `Cc1ccc(-c2nc(NC(=O)C3CC3)cn3nc(C(F)F)nc23)o1`
< 10 nM

Need IC50, item `Cc1ccc(-c2nc(NC(=O)C3CC3)cn3ccnc23)o1`
10 to 100 nM

Need IC50, item `Cc1ccc(-c2nc(N)cc3nc(C(C)C)nn23)o1`
100 to 1000 nM

Need IC50, item `Cc1cn2c(Br)c(N)nc(-c3ccccc3)c2n1`
100 to 1000 nM

Need IC50, item `Nc1nc(-c2ccccc2)c2nc(C(F)(F)F)cn2c1Cl`
10 to 100 nM

----------
Recorded IC50 values (Adenosine A2B (ADORA2B) receptor (Homo sapiens (Human), UniProt P29275)) are given below.

Consider the worked cases shown below.
CC(=O)Nc1cc2nc(C)nn2c(-c2ccc(Br)o2)n1 | < 10 nM
Cc1nc2cc(NC(=O)C3CNC3)nc(-c3ccc(C)o3)n2n1 | 10 to 100 nM
Cc1ccc(-c2nc(NC(=O)C3CC3)cn3nc(C(C)C)nc23)o1 | < 10 nM

Need IC50, item `Cc1ccc(-c2nc3c(c4nc(C(C)C)nn24)C(C)(C)CN3)o1`
100 to 1000 nM

Need IC50, item `Cc1cc2c(nc(-c3ccco3)n3nc(C(C)C)nc23)[nH]1`
10 to 100 nM

----------
Recorded IC50 values (Adenosine A2B (ADORA2B) receptor (Homo sapiens (Human), UniProt P29275)) are given below.

Consider the worked cases shown below.
Cc1cn2c(Cl)c(N)nc(-c3ccccc3)c2n1 | 100 to 1000 nM
Cc1nc2c(Cl)c(N)nc(-c3cccc(Cl)c3)n2n1 | 10 to 100 nM
Cc1nc2cc(NC(=O)C3CC3)nc(-c3cccc(C#N)c3)n2n1 | 100 to 1000 nM
Cc1ccc(-c2nc(NC(=O)C3CC3)cc3nc(C4CC4)nn23)o1 | 10 to 100 nM
Cc1nc2cc(NC(=O)CF)nc(-c3ccco3)n2n1 | 10 to 100 nM

Value wanted: IC50 (Adenosine A2B (ADORA2B) receptor (Homo sapiens (Human), UniProt P29275)) of entry `Cc1nc2c(C)c(N)nc(-c3ccc(C)o3)n2n1`
10 to 100 nM

Value wanted: IC50 (Adenosine A2B (ADORA2B) receptor (Homo sapiens (Human), UniProt P29275)) of entry `Cc1nc2cc(NC(=O)C(C)(C)C)nc(-c3ccc(C)o3)n2n1`
> 1000 nM

Value wanted: IC50 (Adenosine A2B (ADORA2B) receptor (Homo sapiens (Human), UniProt P29275)) of entry `Cc1nc2cc(NC(=O)N3CCCC3)nc(-c3ccco3)n2n1`
100 to 1000 nM

Value wanted: IC50 (Adenosine A2B (ADORA2B) receptor (Homo sapiens (Human), UniProt P29275)) of entry `Cc1nc2c3nc(C(F)(F)F)[nH]c3nc(-c3ccco3)n2n1`
> 1000 nM

Value wanted: IC50 (Adenosine A2B (ADORA2B) receptor (Homo sapiens (Human), UniProt P29275)) of entry `Cc1nc2cc(NC(=O)C3CC3)nc(-c3ccc(S(=O)(=O)O)cc3)n2n1`
> 1000 nM

Value wanted: IC50 (Adenosine A2B (ADORA2B) receptor (Homo sapiens (Human), UniProt P29275)) of entry `Cc1nc2c(-c3ccc(F)cc3)nc(N)c(Cl)n2n1`
10 to 100 nM

----------
Recorded IC50 values (Adenosine A2a (ADORA2A) receptor (Homo sapiens (Human), UniProt P29274)) are given below.

Consider the worked cases shown below.
Cc1ccc(-c2nc(N)c(Cl)c3nc(C(F)(F)F)nn23)o1 | < 10 nM
Cc1nc2cc(NC(=O)C3CC3)nc(-c3ccc(C4CC4)o3)n2n1 | < 10 nM
Cc1nc2cc(NC(=O)[C@H]3CCCN3)nc(-c3ccc(C)o3)n2n1 | < 10 nM
Cc1nc2cc(NC(=O)C3CC3)nc(-c3ccc(C(C)C)o3)n2n1 | < 10 nM
Cc1ccc(-c2nc(N)c(Cl)n3nc(C)nc23)cc1 | < 10 nM

Value wanted: IC50 (Adenosine A2a (ADORA2A) receptor (Homo sapiens (Human), UniProt P29274)) of entry `Cc1ccc(-c2nc(NC(=O)C3CC3)cc3nc(C(C)C)nn23)o1`
< 10 nM

Value wanted: IC50 (Adenosine A2a (ADORA2A) receptor (Homo sapiens (Human), UniProt P29274)) of entry `Cc1nc2c(Cl)c(N(C)C)nc(-c3ccc(C)o3)n2n1`
> 1000 nM

Value wanted: IC50 (Adenosine A2a (ADORA2A) receptor (Homo sapiens (Human), UniProt P29274)) of entry `Cc1nc2cc(NC(=O)C3CC3)nc(-c3ccoc3)n2n1`
10 to 100 nM

Value wanted: IC50 (Adenosine A2a (ADORA2A) receptor (Homo sapiens (Human), UniProt P29274)) of entry `Cc1nc2cc(NC(=O)C3CC3)nc(-c3ccc(S(N)(=O)=O)cc3)n2n1`
> 1000 nM
